propertyMeasured: IC50 (µM)
Number in µM, nothing else.

Ask | // map CC(C)(C)NC(=O)C(c1cccnc1)N(C(=O)c1c[nH]cn1)c1ccc(C2CC2)cc1 (stereo not drawn) to recorded IC50 (system: SARS-3CL^pro (Severe acute respiratory syndrome coronavirus (SARS-CoV), UniProt P0C6X7))
Reply | 12.7

Ask | // map O=C(Nc1ccc(N(C(=O)Cn2nnc3ccccc32)C(C(=O)NC2CCCC2)c2ccsc2)cc1)C1CC1 (stereo not drawn) to recorded IC50 (system: SARS-3CL^pro (Severe acute respiratory syndrome coronavirus (SARS-CoV), UniProt P0C6X7))
Reply | 4.2

Ask | // map COc1cccc(C(C(=O)NCc2ccccc2)N(C(=O)Cn2nnc3ccccc32)c2ccc(NC(=O)C(C)C)cc2)c1 (stereo not drawn) to recorded IC50 (system: SARS-3CL^pro (Severe acute respiratory syndrome coronavirus (SARS-CoV), UniProt P0C6X7))
Reply | 3.5

Ask | // map CC(C)(C)NC(=O)C(c1cccnc1)N(C(=O)c1c[nH]cn1)c1ccc(C2CCC2)cc1 (stereo not drawn) to recorded IC50 (system: SARS-3CL^pro (Severe acute respiratory syndrome coronavirus (SARS-CoV), UniProt P0C6X7))
Reply | 9.9

Ask | // map O=C(Nc1ccc(N(C(=O)Cn2nnc3ccccc32)C(C(=O)NC2CC2)c2ccsc2)cc1)C1CC1 (stereo not drawn) to recorded IC50 (system: SARS-3CL^pro (Severe acute respiratory syndrome coronavirus (SARS-CoV), UniProt P0C6X7))
Reply | 8.2

Ask | // map CC(C)C(=O)Nc1ccc(N(C(=O)Cn2nnc3ccccc32)C(C(=O)NCc2ccccc2)c2ccc(OCCCN(C)C)cc2)cc1 (stereo not drawn) to recorded IC50 (system: SARS-3CL^pro (Severe acute respiratory syndrome coronavirus (SARS-CoV), UniProt P0C6X7))
Reply | 27.3

Ask | // map CC(C)(C)c1ccc(N(C(=O)c2c[nH]cn2)C(C(=O)NC2CC2)c2cccnc2)cc1 (stereo not drawn) to recorded IC50 (system: SARS-3CL^pro (Severe acute respiratory syndrome coronavirus (SARS-CoV), UniProt P0C6X7))
Reply | 11.8

Ask | // map CC(C)(C)OC(=O)CNC(=O)C(c1ccsc1)N(C(=O)Cn1nnc2ccccc21)c1ccc(NC(=O)C2CC2)cc1 (stereo not drawn) to recorded IC50 (system: SARS-3CL^pro (Severe acute respiratory syndrome coronavirus (SARS-CoV), UniProt P0C6X7))
Reply | 6.3

Ask | // map CC(C)NC(=O)C(c1ccsc1)N(C(=O)Cn1nnc2ccccc21)c1ccc(NC(=O)C2CC2)cc1 (stereo not drawn) to recorded IC50 (system: SARS-3CL^pro (Severe acute respiratory syndrome coronavirus (SARS-CoV), UniProt P0C6X7))
Reply | 8.3

Ask | // map CC(C)C(=O)Nc1ccc(N(C(=O)Cn2nnc3ccccc32)C(C(=O)NCc2ccccc2)c2ccc(Cl)c(F)c2)cc1 (stereo not drawn) to recorded IC50 (system: SARS-3CL^pro (Severe acute respiratory syndrome coronavirus (SARS-CoV), UniProt P0C6X7))
Reply | 0.8

Ask | // map CC(C)(C)NC(=O)C(c1cccnc1)N(C(=O)c1c[nH]cn1)c1ccc(C2CCCC2)cc1 (stereo not drawn) to recorded IC50 (system: SARS-3CL^pro (Severe acute respiratory syndrome coronavirus (SARS-CoV), UniProt P0C6X7))
Reply | 5.3

Ask | // map CC(C)(C)CNC(=O)C(c1cccnc1)N(C(=O)c1c[nH]cn1)c1ccc(C(C)(C)C)cc1 (stereo not drawn) to recorded IC50 (system: SARS-3CL^pro (Severe acute respiratory syndrome coronavirus (SARS-CoV), UniProt P0C6X7))
Reply | 6.3
